Hey, just so you know, these numbers are from patent US12297194B2.

system_under_test: Ba/F3 EGFR L858R/T790M/C797S mutants (Homo sapiens, UniProt P00533, T790M/C797S/L858R, cells depend on it)
Sequence (P00533 whole entry T790M/C797S/L858R): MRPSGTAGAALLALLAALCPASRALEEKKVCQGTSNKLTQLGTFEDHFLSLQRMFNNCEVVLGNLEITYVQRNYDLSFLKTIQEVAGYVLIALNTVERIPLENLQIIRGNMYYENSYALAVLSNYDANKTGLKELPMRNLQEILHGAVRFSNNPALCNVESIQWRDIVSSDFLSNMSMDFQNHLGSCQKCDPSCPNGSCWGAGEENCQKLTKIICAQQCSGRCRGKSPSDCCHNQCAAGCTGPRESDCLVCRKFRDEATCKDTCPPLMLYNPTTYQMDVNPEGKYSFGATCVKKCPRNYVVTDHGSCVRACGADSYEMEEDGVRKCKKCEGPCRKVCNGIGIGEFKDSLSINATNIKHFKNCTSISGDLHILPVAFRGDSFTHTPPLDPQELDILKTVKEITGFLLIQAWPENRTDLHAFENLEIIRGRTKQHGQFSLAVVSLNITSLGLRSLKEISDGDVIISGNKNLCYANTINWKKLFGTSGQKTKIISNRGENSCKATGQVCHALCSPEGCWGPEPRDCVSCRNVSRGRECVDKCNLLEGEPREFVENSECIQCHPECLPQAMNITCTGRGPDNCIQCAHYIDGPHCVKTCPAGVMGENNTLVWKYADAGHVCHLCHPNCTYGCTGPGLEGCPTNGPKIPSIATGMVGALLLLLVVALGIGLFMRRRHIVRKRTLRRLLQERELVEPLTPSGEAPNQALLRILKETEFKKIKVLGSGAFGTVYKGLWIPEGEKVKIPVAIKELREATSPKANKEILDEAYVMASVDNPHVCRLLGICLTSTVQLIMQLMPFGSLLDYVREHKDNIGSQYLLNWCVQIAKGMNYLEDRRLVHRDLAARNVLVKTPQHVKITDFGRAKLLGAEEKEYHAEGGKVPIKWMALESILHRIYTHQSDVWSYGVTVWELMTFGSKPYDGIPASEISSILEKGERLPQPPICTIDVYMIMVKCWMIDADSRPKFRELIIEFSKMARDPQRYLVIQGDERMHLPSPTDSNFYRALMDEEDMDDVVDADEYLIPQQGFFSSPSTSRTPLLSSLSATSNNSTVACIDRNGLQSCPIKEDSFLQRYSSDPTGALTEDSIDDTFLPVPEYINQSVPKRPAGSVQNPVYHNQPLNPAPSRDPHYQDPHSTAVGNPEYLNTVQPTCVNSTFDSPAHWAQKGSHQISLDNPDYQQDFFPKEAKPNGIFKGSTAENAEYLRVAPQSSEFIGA
protocol_description: CellTiter-Glo cell viability, Ba/F3 EGFR L858R/T790M/C797S cells
Type: cell-based, murine
conditions: 72 hours, read-out: Ba/F3 EGFR mutant cell (IC50, nM) L/T/C
The class of a record is decided solely by its measured GI50; consult low value = under 40 nM, medium value = from 40 nM up to 100 nM, high value = 100 nM and over

{"molecule": "CCc1cc(Nc2ncc(Cl)c(Nc3ccc(OC)c(OC)c3N(C)S(C)(=O)=O)n2)c(OC)cc1N1CCC(N2CCOCC2)CC1 [Example C32]", "class_name": "high value"}
{"molecule": "COc1cc(N2CCC(N3CCN(C)CC3)CC2)c(F)cc1Nc1ncc(Br)c(Nc2ccc3nccnc3c2NS(C)(=O)=O)n1 [Example A27]", "class_name": "medium value"}
{"molecule": "CCc1cc(Nc2ncc(Cl)c(Nc3ccc4nccnc4c3NS(C)(=O)=O)n2)c(OC)cc1N1CCC(N2CC3CCC2CN3C)CC1 (stereo not drawn) [Example A45]", "class_name": "medium value"}
{"molecule": "COc1cc(N2CC[C@H](N3CCN(C)CC3)[C@H](F)C2)ccc1Nc1ncc(Cl)c(Nc2ccc3nccnc3c2NS(C)(=O)=O)n1 [Example A35]", "class_name": "high value"}
{"molecule": "COc1cc(N2CCC(N3CCCC3)CC2)c(C)cc1Nc1ncc(Br)c(Nc2cccc(OC)c2NS(C)(=O)=O)n1 [Example C25]", "class_name": "medium value"}
{"molecule": "CCCc1cc(Nc2ncc(Cl)c(Nc3ccc4nccnc4c3NS(C)(=O)=O)n2)c(OC)cc1N1CCC(N2CCN(C)CC2)CC1 [Example A6]", "class_name": "low value"}

**Q:** State the band of CCCc1cc(Nc2ncc(Br)c(Nc3ccc4nccnc4c3NS(C)(=O)=O)n2)c(OC)cc1N1CCC(N(C)C)CC1 [Example B13]
**A:** low value

**Q:** Where would CNc1cc(N2CCC(N3CCN(C)CC3)CC2)c(C)cc1Nc1ncc(Cl)c(Nc2ccc3nccnc3c2NS(C)(=O)=O)n1 [Example A13] land among the classes by reported GI50?
**A:** high value

**Q:** Which category does the recorded GI50 put CCc1cc(Nc2ncc(Cl)c(Nc3ccc4nccnc4c3N(C)S(C)(=O)=O)n2)c(OC)cc1N1CCC(N2CCCC2)CC1 [Example A43] in?
**A:** low value

**Q:** // bin(item) where item = CCc1cc(Nc2ncc(Br)c(Nc3ccc4nccnc4c3NS(C)(=O)=O)n2)c(OC)cc1N1CCC(N2CC3CCC2CN3C)CC1 (stereo not drawn) [Example A46]
**A:** medium value

**Q:** Where would CCCc1cc(Nc2ncc(Cl)c(Nc3ccc4nccnc4c3N(C)S(C)(=O)=O)n2)c(OC)cc1N1CCC(N2CCOCC2)CC1 [Example A41] land among the classes by reported GI50?
**A:** high value

**Q:** Band assignment needed for CCc1cc(Nc2ncc(Br)c(Nc3ccc4c(c3N(C)S(C)(=O)=O)OCCO4)n2)c(OC)cc1N1CCC(N2CCN(C)CC2)CC1 [Example C28] please.
**A:** low value

**Q:** Given COc1cc(N2CCC(N3CCN(C)CC3)CC2)c(C)cc1Nc1ncc(Br)c(Nc2cccc(OC)c2NS(C)(=O)=O)n1 [Example C1] , name the class its GI50 places it in.
**A:** low value

**Q:** Which category fits this record: CCc1cc(Nc2ncc(Br)c(Nc3ccc4nccnc4c3N(C)S(C)(=O)=O)n2)c(OC)cc1N1CCC(N2CCOCC2)CC1 [Example A39]
**A:** low value

**Q:** Which category does the recorded GI50 put COc1cc(N2CCC(N3CCN(C)CC3)CC2)c(C)cc1Nc1ncc(Br)c(Nc2cccc(OC)c2N(C)S(C)(=O)=O)n1 [Example C21] in?
**A:** medium value

**Q:** Just checking, what class would you give CCc1cc(Nc2ncc(Br)c(Nc3ccc4nccnc4c3N(C)S(C)(=O)=O)n2)c(OC)cc1N1CCC(N2CCN(C)CC2)CC1 [Example A10] here?
**A:** low value

**Q:** Which class holds COc1cc(N2CCC(N3CCN(C)CC3)CC2)ccc1Nc1ncc(Cl)c(Nc2ccc3scnc3c2NS(C)(=O)=O)n1 [Example C8] ?
**A:** high value
